- METHOD_NOTES: Solubility of compound 1 crystalline free base in different solvents, by HPLC
- Assay type: physicochemical
- CONDITION_PARAMETERS: organic solvent or mixture, thermodynamic from solid; solvent DME; crystalline free base slurry, room temperature, 4 day solution; read-out: Conc. FB (solubility)
QUANTITY_MEASURED: solubility at 4 day (mg/mL)
Give bare numbers, in mg/mL.

Give solubility at 4 day for C[C@@H](c1ccc2ncccc2c1)c1nnc2sc(-c3cnn(C)c3)nn12
16.1

* * *

- TESTED_TARGET: c-Met (Homo sapiens)
- Construct: is a human gastric carcinoma known to overexpress c-Met, which is constitutively active
- Sequence (P08581 25-1390): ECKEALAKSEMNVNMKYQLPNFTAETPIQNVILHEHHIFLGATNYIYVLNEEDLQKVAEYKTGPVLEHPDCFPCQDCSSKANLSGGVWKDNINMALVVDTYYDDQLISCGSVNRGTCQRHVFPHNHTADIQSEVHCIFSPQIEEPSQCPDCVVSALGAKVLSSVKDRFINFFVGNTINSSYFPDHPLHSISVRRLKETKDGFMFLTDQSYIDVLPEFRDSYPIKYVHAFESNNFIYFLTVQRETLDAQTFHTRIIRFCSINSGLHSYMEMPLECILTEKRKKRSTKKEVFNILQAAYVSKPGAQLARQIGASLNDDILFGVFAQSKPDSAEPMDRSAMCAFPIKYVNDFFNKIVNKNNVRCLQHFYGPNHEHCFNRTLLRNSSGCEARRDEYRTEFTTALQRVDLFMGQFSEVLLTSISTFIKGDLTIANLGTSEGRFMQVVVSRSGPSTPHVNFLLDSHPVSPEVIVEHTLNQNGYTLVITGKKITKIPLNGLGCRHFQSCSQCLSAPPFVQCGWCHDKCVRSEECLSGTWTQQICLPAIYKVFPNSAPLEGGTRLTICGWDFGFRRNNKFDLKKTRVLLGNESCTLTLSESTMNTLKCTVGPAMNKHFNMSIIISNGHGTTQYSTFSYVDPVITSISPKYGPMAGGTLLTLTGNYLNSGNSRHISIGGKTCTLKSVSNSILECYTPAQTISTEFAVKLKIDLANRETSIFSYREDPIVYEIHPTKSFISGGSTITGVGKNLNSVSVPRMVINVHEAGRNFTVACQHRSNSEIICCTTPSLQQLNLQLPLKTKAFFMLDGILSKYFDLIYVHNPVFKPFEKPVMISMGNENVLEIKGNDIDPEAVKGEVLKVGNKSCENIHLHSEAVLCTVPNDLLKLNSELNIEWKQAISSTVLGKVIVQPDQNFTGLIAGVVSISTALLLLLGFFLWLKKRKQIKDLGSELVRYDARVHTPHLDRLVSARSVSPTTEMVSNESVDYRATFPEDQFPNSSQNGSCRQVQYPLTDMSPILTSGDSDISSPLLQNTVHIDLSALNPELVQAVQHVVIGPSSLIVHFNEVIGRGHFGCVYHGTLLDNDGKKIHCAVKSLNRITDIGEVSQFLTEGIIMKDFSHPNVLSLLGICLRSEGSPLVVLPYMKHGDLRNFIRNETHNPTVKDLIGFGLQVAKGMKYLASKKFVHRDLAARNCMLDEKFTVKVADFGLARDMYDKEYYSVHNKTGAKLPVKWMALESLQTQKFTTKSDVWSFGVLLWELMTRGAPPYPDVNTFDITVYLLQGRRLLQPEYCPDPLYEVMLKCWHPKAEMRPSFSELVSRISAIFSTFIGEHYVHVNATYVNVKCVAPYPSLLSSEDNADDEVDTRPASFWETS
- METHOD_NOTES: Inhibition of c-Met activity in Snu5 gastric carcinoma cells (Snu5-AP1-Luc-Pest luciferase signal)
- CONDITION_PARAMETERS: 6 hours, luciferase luminescence
QUANTITY_MEASURED: pIC50
Answers are plain numbers, as −log10 of the molar value.

Find the measured pIC50 of C[C@@H](c1ccc2ncccc2c1)c1nnc2sc(-c3cnn(C)c3)nn12 and report it.
7.64
